Tested on: Schistosoma mansoni
assay: Antiparasitic activity against Schistosoma mansoni
Assay type: functional
Please respond with Met when measured EC is strictly beneath 0.01 mM, and with Not met in all other cases.

> print(dat)
                                   molecule    label
1  O=C1c2cccc(O)c2C(=O)C2C(O)=C(O)C(CO)=CC12 (stereo unspecified)  Not met
2  CC1=CC2C(=O)c3cccc(O)c3C(=O)C2C(O)=C1O (stereo unspecified)  Not met
3  C=C(C)[C@@H]1CCC2(C)OC2C1 (single isomer, unassigned; (+))  Not met
4  COc1cc(/C=C/C(=O)CC(=O)/C=C/c2ccc(O)c(OC)c2)ccc1O      Met
